Recorded values, source paper PMC12163485.

Listed compounds paired with reported pIC50
# target.or.test.system: human OCT1 (hOCT1) (Homo sapiens)
# Sequence (O15245 1-554): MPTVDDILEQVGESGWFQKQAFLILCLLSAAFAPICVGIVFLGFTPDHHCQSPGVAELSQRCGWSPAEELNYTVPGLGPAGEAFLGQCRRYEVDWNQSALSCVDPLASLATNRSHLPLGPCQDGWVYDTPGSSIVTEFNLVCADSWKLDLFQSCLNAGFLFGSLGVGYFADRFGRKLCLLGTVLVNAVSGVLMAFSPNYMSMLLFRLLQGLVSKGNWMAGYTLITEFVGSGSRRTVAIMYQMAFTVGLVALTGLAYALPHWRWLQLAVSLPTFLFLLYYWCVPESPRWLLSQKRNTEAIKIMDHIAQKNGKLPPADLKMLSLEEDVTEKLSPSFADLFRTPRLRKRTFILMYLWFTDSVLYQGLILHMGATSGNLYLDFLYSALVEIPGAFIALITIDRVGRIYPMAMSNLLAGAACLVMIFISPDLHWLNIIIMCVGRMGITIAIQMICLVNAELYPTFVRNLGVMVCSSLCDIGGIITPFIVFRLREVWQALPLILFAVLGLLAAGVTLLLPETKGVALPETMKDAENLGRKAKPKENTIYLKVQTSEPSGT
# assay.summary: Inhibition of OCT1-mediated uptake of the cocktail substrates in HEK293 cells overexpressing human OCT1
# protocol.conditions: IC50 for inhibition of methylnaltrexone uptake, human OCT1; substrate (victim) methylnaltrexone 1 μM in cocktail; mean ± SD
pIC50: −log10 of the molar value.
recorded.metric: pIC50

{"molecular.string": "CNS(=O)(=O)Cc1ccc2[nH]cc(CCN(C)C)c2c1", "recorded.metric": "pIC50", "readout.value": 3.35}
{"molecular.string": "O=C(O[C@H]1C[C@H]2CC[C@@H](C1)[N+]21CCCC1)C(O)(c1ccccc1)c1ccccc1", "recorded.metric": "pIC50", "readout.value": 4.83}

----------
# target.or.test.system: OCT1 (Homo sapiens, UniProt O15245)
# Sequence (O15245 1-554): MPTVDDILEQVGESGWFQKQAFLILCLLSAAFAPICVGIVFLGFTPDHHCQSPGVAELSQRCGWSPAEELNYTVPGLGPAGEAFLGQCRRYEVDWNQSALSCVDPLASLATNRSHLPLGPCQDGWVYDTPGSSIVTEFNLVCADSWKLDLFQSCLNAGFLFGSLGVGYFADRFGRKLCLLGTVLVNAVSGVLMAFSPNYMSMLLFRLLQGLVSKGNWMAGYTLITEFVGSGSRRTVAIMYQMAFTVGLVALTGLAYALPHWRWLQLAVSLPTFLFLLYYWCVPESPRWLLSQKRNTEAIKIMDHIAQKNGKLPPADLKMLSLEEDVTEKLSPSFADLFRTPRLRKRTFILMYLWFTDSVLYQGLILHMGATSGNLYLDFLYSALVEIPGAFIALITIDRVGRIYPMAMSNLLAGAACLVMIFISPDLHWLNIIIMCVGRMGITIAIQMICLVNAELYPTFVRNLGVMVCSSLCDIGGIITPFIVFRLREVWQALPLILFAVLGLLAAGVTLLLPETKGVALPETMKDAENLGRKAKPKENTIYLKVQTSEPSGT
# assay.summary: DDI risk R calculated from IC50 at human OCT1
# protocol.conditions: R=1+fup×Iin,max/IC50, cutoff R ≥ 1.1
The following compounds are listed with their measured DDI risk R, victim drug ipratropium values.

{"compound": "CC(Cc1ccc(O)cc1)NCC(O)c1cc(O)cc(O)c1 (stereo not shown) [Fenoterol, fenoterol]", "DDI risk R, victim drug ipratropium": 1.00}
{"compound": "CNS(=O)(=O)Cc1ccc2[nH]cc(CCN(C)C)c2c1 [Sumatriptan, sumatriptan]", "DDI risk R, victim drug ipratropium": 1.01}
{"compound": "O=C(O[C@H]1C[C@H]2CC[C@@H](C1)[N+]21CCCC1)C(O)(c1ccccc1)c1ccccc1 [Trospium, trospium]", "DDI risk R, victim drug ipratropium": 1.01}
{"compound": "CN(C)C(=N)N=C(N)N [Metformin, metformin]", "DDI risk R, victim drug ipratropium": 1.01}

----------
# target.or.test.system: human OCT1 (hOCT1) (Homo sapiens)
# assay.summary: Transport kinetics (KM, vmax) of OCT1-mediated uptake, HEK293 cells overexpressing human OCT1
# Assay type: in vitro ADME
# Design: expressed in transfected cells; empty vector control pcDNA5
# protocol.conditions: human, HEK293 cells stably overexpressing human OCT1, pH 7.4, hOCT1; substrate tested in cocktail; mean ± SD
# From the text: To validate the cocktail, we analyzed whether the combination of all substrates in a cocktail affected their individual transport kinetics in terms of KM and vmax. […] To measure the transport kinetics for a single substrate in the cocktail, we increased the concentration of 1 substrate while keeping the concentrations of the other substrates in the cocktail constant. […]
recorded.metric: Km at 2 min (µM)

{"molecular.string": "CN(C)C(=N)N=C(N)N", "readout.value": 2000}

----------
# IC50 annotations
# target.or.test.system: human OCT1 (hOCT1) (Homo sapiens, UniProt O15245)
# assay.summary: Inhibition of OCT1-mediated uptake of the cocktail substrates in HEK293 cells overexpressing human OCT1
# protocol.conditions: IC50 for inhibition of zolmitriptan uptake, human OCT1; substrate (victim) zolmitriptan 0.5 μM in cocktail; mean ± SD
recorded.metric: IC50 (µM)

{"molecule": "CNS(=O)(=O)Cc1ccc2[nH]cc(CCN(C)C)c2c1 [Sumatriptan, sumatriptan]", "recorded.metric": "IC50", "readout.value": 506}
{"molecule": "O=C(O[C@H]1C[C@H]2CC[C@@H](C1)[N+]21CCCC1)C(O)(c1ccccc1)c1ccccc1 [Trospium, trospium]", "recorded.metric": "IC50", "readout.value": 10}

----------
# assay.summary: Pharmacokinetic parameters used for estimating the potential for DDIs
# Assay type: in vivo, human
# protocol.conditions: human, plasma, po; read-out: ke (converted)
recorded.metric: k el

{"molecule": "CNS(=O)(=O)Cc1ccc2[nH]cc(CCN(C)C)c2c1 [Sumatriptan, sumatriptan]", "readout.value": "0.000192 s⁻¹"}

----------
// values below are reported DDI risk R, victim drug methylnaltrexone
# target.or.test.system: OCT1 (Homo sapiens, UniProt O15245)
# Sequence (O15245 1-554): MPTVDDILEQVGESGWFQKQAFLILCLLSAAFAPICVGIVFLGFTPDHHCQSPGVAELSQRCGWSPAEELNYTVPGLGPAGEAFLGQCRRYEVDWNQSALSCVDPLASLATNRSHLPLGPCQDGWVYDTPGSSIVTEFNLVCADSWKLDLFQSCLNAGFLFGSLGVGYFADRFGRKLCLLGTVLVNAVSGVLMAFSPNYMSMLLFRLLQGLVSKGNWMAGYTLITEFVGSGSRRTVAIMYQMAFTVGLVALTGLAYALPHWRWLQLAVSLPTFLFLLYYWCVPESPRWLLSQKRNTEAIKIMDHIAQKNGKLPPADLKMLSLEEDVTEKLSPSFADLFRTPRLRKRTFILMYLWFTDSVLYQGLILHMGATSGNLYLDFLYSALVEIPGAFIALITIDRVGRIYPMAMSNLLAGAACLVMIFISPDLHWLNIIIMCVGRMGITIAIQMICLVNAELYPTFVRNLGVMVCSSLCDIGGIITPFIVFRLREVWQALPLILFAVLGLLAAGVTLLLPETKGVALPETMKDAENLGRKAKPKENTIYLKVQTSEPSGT
# assay.summary: DDI risk R calculated from IC50 at human OCT1
# protocol.conditions: R=1+fup×Iin,max/IC50, cutoff R ≥ 1.1

{"molecule": "CC(Cc1ccc(O)cc1)NCC(O)c1cc(O)cc(O)c1 (stereo not shown)", "target.or.test.system": "OCT1 (Homo sapiens, UniProt O15245)", "DDI risk R, victim drug methylnaltrexone": 1.00}
{"molecule": "CNS(=O)(=O)Cc1ccc2[nH]cc(CCN(C)C)c2c1", "target.or.test.system": "OCT1 (Homo sapiens, UniProt O15245)", "DDI risk R, victim drug methylnaltrexone": 1.00}
{"molecule": "O=C(O[C@H]1C[C@H]2CC[C@@H](C1)[N+]21CCCC1)C(O)(c1ccccc1)c1ccccc1", "target.or.test.system": "OCT1 (Homo sapiens, UniProt O15245)", "DDI risk R, victim drug methylnaltrexone": 1.01}
{"molecule": "CN(C)C(=N)N=C(N)N", "target.or.test.system": "OCT1 (Homo sapiens, UniProt O15245)", "DDI risk R, victim drug methylnaltrexone": 1.01}

----------
# target.or.test.system: human OCT1 (hOCT1) (Homo sapiens)
# assay.summary: Transport kinetics (KM, vmax) of OCT1-mediated uptake, HEK293 cells overexpressing human OCT1
# Format: in vitro ADME
# Set-up: expressed in transfected cells; empty vector control pcDNA5
# protocol.conditions: human, HEK293 cells stably overexpressing human OCT1, pH 7.4, hOCT1; substrate tested alone; mean ± SD

{"molecular.string": "CN(C)C(=N)N=C(N)N", "unit.text": "µM", "Km at 2 min": 1380}
